Tested on: Escherichia coli TOP10;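 note: peptides expressed intracellularly from a pBAD plasmid library in pooled LB shake-flask culture, induced with 0.3% L-arabinose, DNA abundance read by NGS, three biological replicates, DESeq2 with apeglm shrinkage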
Experiment: shrunken log2 fold change of peptide-encoding DNA abundance (4.5 h post-induction vs induction); higher = less antimicrobial activity (less host growth inhibition)
Conditions: time post-induction: 4.5 h; library: site-saturation at positions 5, 18, 19, 20
Label not fulfilled if shrunken log2 fold change falls below -0.02; label fulfilled in every other case.

These solved cases illustrate the format of a correct answer.
RRIRNRPPRLPRPRPRPVHHPRP : not fulfilled
RRIRMRPPRLPRPRPRPFATPRP : fulfilled
RRIRQRPPRLPRPRPRPSGMPRP : not fulfilled
RRIRMRPPRLPRPRPRPRMGPRP : fulfilled

**Query** Please check the record RRIRSRPPRLPRPRPRPLECPRP and state if its shrunken log2 fold change is at or above -0.02.
**Result** not fulfilled

**Query** // inclusive: shrunken log2 fold change at least -0.02? input: RRIRMRPPRLPRPRPRPLMEPRP
**Result** fulfilled

**Query** // inclusive: shrunken log2 fold change at least -0.02? input: RRIRNRPPRLPRPRPRPVIKPRP
**Result** not fulfilled

**Query** Reported shrunken log2 fold change at or above -0.02? RRIRPRPPRLPRPRPRPFFIPRP
**Result** not fulfilled

**Query** Does the sequence RRIRHRPPRLPRPRPRPAHRPRP have recorded shrunken log2 fold change that is -0.02 or more?
**Result** fulfilled

**Query** Determine whether this sequence has shrunken log2 fold change no lower than -0.02: RRIRIRPPRLPRPRPRPFKQPRP
**Result** not fulfilled

**Query** Record RRIRTRPPRLPRPRPRPQTGPRP ; criterion: shrunken log2 fold change no lower than -0.02. Met?
**Result** not fulfilled

**Query** Assess whether reported shrunken log2 fold change for RRIRARPPRLPRPRPRPASQPRP sits at -0.02 or higher.
**Result** fulfilled

**Query** Is shrunken log2 fold change for RRIRMRPPRLPRPRPRPLYYPRP at or above -0.02?
**Result** not fulfilled

**Query** # check: shrunken log2 fold change of RRIRKRPPRLPRPRPRPTVEPRP is greater than or equal to -0.02
**Result** fulfilled

**Query** Threshold query (shrunken log2 fold change >= -0.02) on RRIRMRPPRLPRPRPRPVFFPRP
**Result** fulfilled

**Query** Answer whether shrunken log2 fold change of RRIRKRPPRLPRPRPRPQMYPRP is greater than or equal to -0.02.
**Result** not fulfilled

**Query** Could you tell me if the measured shrunken log2 fold change of RRIRDRPPRLPRPRPRPPECPRP reaches -0.02 or more?
**Result** fulfilled

**Query** Test whether the sequence RRIRKRPPRLPRPRPRPAHSPRP records shrunken log2 fold change of -0.02 or higher.
**Result** fulfilled

**Query** Entry RRIRSRPPRLPRPRPRPSDHPRP : is its shrunken log2 fold change no less than -0.02?
**Result** not fulfilled

**Query** Answer whether shrunken log2 fold change of RRIRQRPPRLPRPRPRPTIHPRP is greater than or equal to -0.02.
**Result** not fulfilled

**Query** Please check the record RRIRPRPPRLPRPRPRPRPAPRP and state if its shrunken log2 fold change is at or above -0.02.
**Result** fulfilled

**Query** Please check the record RRIRHRPPRLPRPRPRPWYFPRP and state if its shrunken log2 fold change is at or above -0.02.
**Result** not fulfilled

**Query** Is shrunken log2 fold change for RRIRHRPPRLPRPRPRPMPKPRP at or above -0.02?
**Result** fulfilled

**Query** Identify whether the reported shrunken log2 fold change of the following sequence is -0.02 or greater: RRIRWRPPRLPRPRPRPFGVPRP
**Result** fulfilled

**Query** Could you please find out whether RRIRYRPPRLPRPRPRPWWSPRP has shrunken log2 fold change that meets -0.02 or exceeds it?
**Result** fulfilled

**Query** Check the entry RRIRIRPPRLPRPRPRPCMIPRP : does shrunken log2 fold change equal or exceed -0.02?
**Result** not fulfilled

**Query** Is the recorded value of shrunken log2 fold change equal to or greater than -0.02 for this sequence? RRIRVRPPRLPRPRPRPMMGPRP
**Result** fulfilled

**Query** Can RRIRLRPPRLPRPRPRPHFIPRP be said to have shrunken log2 fold change at or above -0.02?
**Result** not fulfilled
